B1: FUT8 (parent)
chain: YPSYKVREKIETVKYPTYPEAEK

Variants of: B1
Assay: protein stability index of a GFP-peptide fusion (GPS, HEK-293T) (PSI 1-6); higher = more stable;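 also: lentivirally expressed fusions sorted by FACS into six bins by GFP to DsRed ratio, PSI derived from sequencing read proportions per bin multiplied by bin number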
Conditions: c terminus: native
Use Y when the recorded protein stability index is no lower than 4; use N when it is lower.

# changes, groupLabel
rows = [
    ("S3V", "N"),
    ("E11P", "Y"),
    ("P19T", "N"),
    ("I10C", "Y"),
    ("A21C", "N"),
    ("P2Y", "N"),
    ("K23L", "N"),
    ("Y1V", "Y"),
    ("P19C", "N"),
    ("P16Q", "Y"),
    ("V6R", "Y"),
    ("V6K", "Y"),
    ("Y15A", "N"),
    ("Y4I", "Y"),
    ("K5L", "Y"),
    ("P16D", "Y"),
    ("A21M", "Y"),
    ("K9I", "N"),
    ("P2I", "N"),
    ("Y4T", "Y"),
]
